TARGET: Voltage-gated potassium channel subunit beta-2 (Rattus norvegicus)
ASSAY NAME: KvBeta enzyme negative modulators, primary screen, biochemical, NADPH fluorescence (AID 622);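 further: slope of raw intensity against log time taken from 70 to 1610 s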
RUN CONDITIONS: recombinant KvBeta, 4-cyanobenzaldehyde reduction, at 10 µM, active compounds read high
Kind request: treat -0.4 as inclusive, so fluorescence slope at -0.4 or higher is Condition met, anything lower is Condition not met.

Examples with answers:
COMPOUND	TARGET	DISCRETE LABEL
CN=c1sc2ccccc2n1CC(O)COCc1ccco1 (configuration not stated)	Voltage-gated potassium channel subunit beta-2 (Rattus norvegicus)	Condition met
COc1ccc(-n2c(=O)c3c4c(sc3n3c(C)nnc23)CC(C)CC4)cc1 (configuration not stated)	Voltage-gated potassium channel subunit beta-2 (Rattus norvegicus)	Condition met
c1coc(-c2nc3nc4ccccc4nc3n2-c2ccc3c(c2)OCCO3)c1	Voltage-gated potassium channel subunit beta-2 (Rattus norvegicus)	Condition met
N#CC1=C(SCC(=O)c2ccc(Cl)cc2)NC2=C(C(=O)CCC2)C1c1ccco1 (configuration not stated)	Voltage-gated potassium channel subunit beta-2 (Rattus norvegicus)	Condition not met

stdin: Check if fluorescence slope >= -0.4 (inclusive). Item: COc1ccc(OC)c(C(O)c2coc3ccc(O)c(CN4CCOCC4)c23)c1 (configuration not stated)
stdout: Condition not met

stdin: Try this compound next: Cn1nccc1C(=O)Nc1ccccc1C(=O)O
stdout: Condition not met

stdin: Next up: CCCC(=O)Nc1sc2c(c1C#N)CCCC2
stdout: Condition not met

stdin: Try this compound next: Nc1cccc(C(=O)O)c1
stdout: Condition not met

stdin: Next record, please: CCOC(=O)c1[nH]c2ccccc2c1NC(=O)CCN1CCN(C(=O)OCC)CC1
stdout: Condition met

stdin: # repeat for c1ccc(N2CCN(c3nc(NCc4ccco4)c4ccccc4n3)CC2)cc1
stdout: Condition met

stdin: Try this compound next: COCCCNc1nc2c(c(=O)n(C)c(=O)n2C)n1Cc1cccc(OC)c1
stdout: Condition met

stdin: Next: Cc1[nH]c2ccc3c(ncn3CCC#N)c2c1C
stdout: Condition not met

====

inhibition values for the molecules below.
TARGET: Dual specificity protein phosphatase 6 (Homo sapiens) (UniProt Q16828)
Sequence (Q16828 whole entry, looked up): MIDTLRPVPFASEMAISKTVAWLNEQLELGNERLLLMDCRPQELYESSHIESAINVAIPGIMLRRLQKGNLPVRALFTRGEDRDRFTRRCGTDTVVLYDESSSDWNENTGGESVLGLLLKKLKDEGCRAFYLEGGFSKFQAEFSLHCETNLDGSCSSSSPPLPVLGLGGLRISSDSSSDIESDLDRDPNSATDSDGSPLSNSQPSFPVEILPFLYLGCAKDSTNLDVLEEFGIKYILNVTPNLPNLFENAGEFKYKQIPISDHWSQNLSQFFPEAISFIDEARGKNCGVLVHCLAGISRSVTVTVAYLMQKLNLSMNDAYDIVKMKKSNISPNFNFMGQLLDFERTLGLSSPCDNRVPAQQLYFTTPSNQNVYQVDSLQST
ASSAY NAME: DUSP6 inhibitors restoring Erk phosphorylation by chemical complementation, primary imaging in DUSP6-transfected HeLa (AID 609);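 further: phospho-Erk level distribution per well compared with pooled transfected vehicle control wells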
RUN CONDITIONS: HeLa MKP-3 transfected, phospho-Erk imaging KS statistic; at 10 µM; active compounds read high; cells stimulated with TPA for 15 min
Calls of active or inactive are those of the source.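 How the source made its calls: active means compounds giving at least 50% inhibition in the cell-based MKP-3 phosphatase rescue imaging test; inactive means the rest.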

Consider the following illustrative entries.
MOLECULE	inhibition
Cc1cc(C)n(C(=O)CNC(=O)C2COc3ccccc3O2)n1 (stereo not given)	3.66% (inactive)
CCOC(=O)c1c(C)n(C)c2ccc(OC)c(NC(=O)CCN3CCSCC3)c12	-9.66% (inactive)
COc1ccc(/C(O)=C2\C(=O)C(=O)N(CCN3CCOCC3)C2c2ccccc2OC)cc1 (stereo not given)	-7.86% (inactive)

stdin: Which inhibition is reported for this molecule? CC(=O)c1c(OCC(=O)O)ccc2c(C)cc(=O)oc12
stdout: 5.95% (inactive)

stdin: Lookup COC(=O)CN(c1nc(C)c(Br)c(OC)n1)S(=O)(=O)c1ccc(C)cc1
stdout: 9.82% (inactive)

stdin: For CCc1cc2c(=O)c(-c3nc4ccccc4[nH]3)coc2cc1OC(=O)N1CCOCC1 then?
stdout: -9.53% (inactive)

stdin: Same lookup for c1ccc(N2CCN(c3nc(NCc4ccco4)c4ccccc4n3)CC2)cc1 , please.
stdout: -4.7% (inactive)

stdin: Queued: O/N=C(\c1ccc2c(c1)OCCO2)C1CCCCC1
stdout: -1.98% (inactive)

stdin: Another molecule to look at: COc1cccc(Cn2c(OCC3CCCO3)nc3c2c(=O)n(C)c(=O)n3C)c1 (stereo not given)
stdout: -7.28% (inactive)

stdin: Proceed to COc1ccc(NC(=O)Nc2cccc(C(=O)N3CCOCC3)c2)cc1OC
stdout: 12.3% (inactive)
